Biological target: Sodium-dependent dopamine transporter (Homo sapiens)
Sequence (Q01959 whole entry): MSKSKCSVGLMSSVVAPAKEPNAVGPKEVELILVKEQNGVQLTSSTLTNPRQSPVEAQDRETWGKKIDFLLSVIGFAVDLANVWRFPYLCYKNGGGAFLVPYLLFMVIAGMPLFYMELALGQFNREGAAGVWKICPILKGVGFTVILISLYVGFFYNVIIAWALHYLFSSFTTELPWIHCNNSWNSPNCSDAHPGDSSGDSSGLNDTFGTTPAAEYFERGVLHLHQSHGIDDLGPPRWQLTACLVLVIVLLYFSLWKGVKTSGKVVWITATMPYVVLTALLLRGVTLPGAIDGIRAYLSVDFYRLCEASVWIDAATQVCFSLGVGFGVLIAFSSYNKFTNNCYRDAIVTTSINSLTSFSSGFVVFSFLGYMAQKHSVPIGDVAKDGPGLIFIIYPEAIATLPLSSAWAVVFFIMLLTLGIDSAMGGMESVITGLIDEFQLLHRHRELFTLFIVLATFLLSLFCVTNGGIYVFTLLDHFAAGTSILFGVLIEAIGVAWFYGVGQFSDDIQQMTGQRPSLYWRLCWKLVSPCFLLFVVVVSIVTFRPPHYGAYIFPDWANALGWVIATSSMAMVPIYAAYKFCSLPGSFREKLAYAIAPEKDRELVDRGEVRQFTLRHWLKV
Assay: Displacement of [3H]GBR12935 from human cloned DAT expressed in HEK293 cells
pKi: −log10 of the molar value.
measured-quantity: pKi

[I] Cc1ccc(Oc2ccc(OCCCCF)cc2CN(C)C)c(N)c1
[II] Cc1ccc(Oc2ccc(F)cc2CN(C)C)c(N)c1
Of I versus II , which is the one with smaller reported pKi? I would appreciate it if you answered with the label of your choice. I

----------
Biological target: UniProt:P31645
Sequence (P31645 whole entry): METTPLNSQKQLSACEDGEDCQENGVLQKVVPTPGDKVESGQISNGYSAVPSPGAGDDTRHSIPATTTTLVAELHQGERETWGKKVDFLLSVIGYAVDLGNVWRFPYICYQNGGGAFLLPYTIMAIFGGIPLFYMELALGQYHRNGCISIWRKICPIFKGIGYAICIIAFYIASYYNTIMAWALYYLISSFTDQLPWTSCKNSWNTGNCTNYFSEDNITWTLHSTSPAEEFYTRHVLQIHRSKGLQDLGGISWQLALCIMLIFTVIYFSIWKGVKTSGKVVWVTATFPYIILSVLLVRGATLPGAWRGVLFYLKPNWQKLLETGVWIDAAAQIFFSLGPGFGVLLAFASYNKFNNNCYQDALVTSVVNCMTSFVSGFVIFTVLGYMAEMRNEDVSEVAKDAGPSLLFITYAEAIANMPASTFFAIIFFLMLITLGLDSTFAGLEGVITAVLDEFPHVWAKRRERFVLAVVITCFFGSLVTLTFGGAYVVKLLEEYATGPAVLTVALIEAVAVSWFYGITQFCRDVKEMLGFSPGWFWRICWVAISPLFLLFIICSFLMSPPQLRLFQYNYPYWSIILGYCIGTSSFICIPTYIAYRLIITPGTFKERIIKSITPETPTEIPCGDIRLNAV
measured-quantity: Ki (nM)

> print(dat)
                        molecule.smiles  measured.quantity  recorded.value
1   Cc1ccc(Oc2ccc(OCCF)cc2CN(C)C)c(N)c1                 Ki             401
2  Cc1ccc(Oc2ccc(OCCCF)cc2CN(C)C)c(N)c1                 Ki               7
3  Cc1ccc(Oc2cc(OCCCF)ccc2CN(C)C)c(N)c1                 Ki             445

[A] Cc1ccc(Oc2ccc(OCCCCF)cc2CN(C)C)c(N)c1
[B] CN(C)Cc1ccccc1Oc1ccc(I)cc1N
Ki comparison. Which is larger, A or B ? I would appreciate it if you answered with the label of your choice. A
